Property: inhibition; scope: individual molecules
protocol: inhibitors of intracellular T. cruzi growth, primary screen, luminescence, NIH3T3 host cells (AID 1885);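 further: signal also drops with host cell toxicity which is not excluded here; 0% = plate median of DMSO wells and 100% = zero luminescence signal; higher percent means less beta-gal luminescence so fewer parasites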
measurementConditions: T. cruzi beta-gal in NIH3T3, luminescence, 90 h; active compounds read high; concentration not given here
The campaign covered roughly 300,000 compounds. About 4,400 (1.5%) were called active. The sample holds actives, similar compounds and a random draw of the others, so the mix is not that of the screen.
Express the result in % but write the number alone.

For orientation, consider the following solved cases.
O=C(Cc1ccc(S(=O)(=O)N2CCOCC2)s1)N1CCN(c2ccc(C(F)(F)F)cc2[N+](=O)[O-])CC1 : 31
CC1=C(C(=O)OC2CCCCC2)C(c2cccnc2)n2ncnc2N1 (stereo not given) : 61.7

Answer with reported inhibition of CC(C)CCNc1nc(N2CCCC2)c2c(c1C#N)CCN(C)C2
58.4

Answer with reported inhibition of COc1ccc(S(=O)(=O)N(CC(=O)N/N=C/c2ccccc2C(=O)O)c2ccccc2OC)cc1
20.6

Answer with reported inhibition of O=C1C=C(c2ccc(Cl)cc2)C(=O)N1Nc1ccccc1
44.2

Answer with reported inhibition of CCN(CC)CCn1cnc2c1c(=O)[nH]c(=O)n2Cc1ccccc1
-8.26

Values compiled from PubChem BioAssay AID1885.
